Recorded values, source paper PMC6451128.

- Measured Target: T1, hPIF1HD wild-type (human, UniProt Q9H611 206-620)
- T1 sequence: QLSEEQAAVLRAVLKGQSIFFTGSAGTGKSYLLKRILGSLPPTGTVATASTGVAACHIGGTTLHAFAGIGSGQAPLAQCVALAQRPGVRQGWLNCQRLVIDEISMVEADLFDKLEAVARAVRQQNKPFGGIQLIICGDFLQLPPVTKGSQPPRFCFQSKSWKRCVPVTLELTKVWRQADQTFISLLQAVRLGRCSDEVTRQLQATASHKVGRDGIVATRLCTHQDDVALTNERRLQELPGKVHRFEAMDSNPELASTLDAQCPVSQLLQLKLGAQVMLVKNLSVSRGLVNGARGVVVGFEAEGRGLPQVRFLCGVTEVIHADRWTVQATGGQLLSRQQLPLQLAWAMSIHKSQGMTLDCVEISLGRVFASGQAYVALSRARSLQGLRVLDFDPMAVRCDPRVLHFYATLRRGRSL
- Measurement Protocol: EMSA; no nucleotide; apparent; 20 mM HEPES-NaOH pH 7.5 (Results say pH 7.2), 135 mM NaCl, 5% glycerol, 1 mM DTT, 1 mg/ml BSA, 20 min at 20 C; 0.4 nM T(35); G4 assay: 0.1 nM G4 DNA, 2% PEG 8000 instead of glycerol, 5 uM T(35) competitor
- Test Parameters: protein: recombinant; tags: His tag removed by thrombin, GSRM left at N-term; label: 5' 32P (PNK)
Metric Name: Kd (nM)

> print(dat)
                                     binder  scale.unit  readout.number
1  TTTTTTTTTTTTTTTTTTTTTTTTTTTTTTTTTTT (ssDNA) [poly-T(35)]          nM             2.3
